Organism: Rattus norvegicus
Assay: DrugMatrix - Regimen: Daily Repeat
Type: toxicity, organism-based, Sprague-Dawley
Set-up: regimen Daily Repeat, gender Male, age 6-8 weeks
Details: in vivo, po, 0 mg/kg, 72 h, tissue Blood, route oral GAVAGE, dose level Control, time 3 day, vehicle .5 % CMC
The label is true for ERYTHROCYTE COUNT below 6 x10E6/uL and false for ERYTHROCYTE COUNT equal to or exceeding 6 x10E6/uL.

Example cases with answers are listed next.
N=C(N)NCCN1CCCCCCC1 [GUANETHIDINE] : false
ClC(Cl)Br [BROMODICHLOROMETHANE] : true

Q: Threshold test, ERYTHROCYTE COUNT < 6 x10E6/uL: Cc1ccc(/N=C/N(C)/C=N/c2ccc(C)cc2C)c(C)c1 [AMITRAZ]
A: true

Q: Threshold test, ERYTHROCYTE COUNT < 6 x10E6/uL: `CC(C)(C)NC(=O)[C@@H]1C[C@@H]2CCCC[C@@H]2CN1C[C@@H](O)[C@H](Cc1ccccc1)NC(=O)[C@H](CC(N)=O)NC(=O)c1ccc2ccccc2n1`
A: true

Q: Threshold test, ERYTHROCYTE COUNT < 6 x10E6/uL: CCn1cc(C(=O)O)c(=O)c2cc(F)c(N3CCNCC3)cc21 [NORFLOXACIN]
A: true

Q: Threshold test, ERYTHROCYTE COUNT < 6 x10E6/uL: CC1CC(OC(=O)C(O)c2ccccc2)CC(C)(C)C1 (centres undefined) [CYCLANDELATE]
A: false
